Molecular target: hGLP-1R (Homo sapiens, UniProt P43220)
Sequence (P43220 24-463): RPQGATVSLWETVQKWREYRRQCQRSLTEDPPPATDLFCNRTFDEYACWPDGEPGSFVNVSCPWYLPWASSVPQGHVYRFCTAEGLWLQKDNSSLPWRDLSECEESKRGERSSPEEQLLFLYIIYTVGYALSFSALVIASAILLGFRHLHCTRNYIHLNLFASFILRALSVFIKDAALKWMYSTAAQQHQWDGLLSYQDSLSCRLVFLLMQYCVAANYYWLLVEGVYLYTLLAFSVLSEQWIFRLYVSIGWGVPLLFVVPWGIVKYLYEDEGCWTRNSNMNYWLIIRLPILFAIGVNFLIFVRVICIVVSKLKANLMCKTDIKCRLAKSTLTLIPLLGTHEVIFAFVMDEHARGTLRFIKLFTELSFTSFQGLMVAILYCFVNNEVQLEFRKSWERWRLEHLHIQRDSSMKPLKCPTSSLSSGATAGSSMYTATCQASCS
Assay: cell-based or functional assay
metric-name: cAMP Rel EC50, nM (1% HSA) (nM)
Report the value in nM with no unit label.

binder	cAMP Rel EC50, nM (1% HSA), nM
YXQGTFTSDXSXXLDXKAQXQFIEYLIAGGPSSGAPPPSGSEE (Lys acylated with (γGlu)2-C18 diacid; non-natural residues; C-amide; synthetic construct; SITE 2: note = 2-Aminoisobutyric Acid; SITE 10: note = 3-(4-Pyridyl)-L-alanine; SITE 12: note = L-ornithine; SITE 13: note = alpha-methyl-leucine; SITE 16: note = L-ornithine; SITE 17: note = Lysine is chemically modified through conjugation of the epsilon-amino group of the Lys) [Example 1000]	279
YXQGTFTSDFSXXLDKKAQXAFIEYLLEAGPSSGAPPPSGX (acylated; synthetic construct; SITE 2: note = 2-Aminoisobutyric Acid; SITE 12: note = L-ornithine; SITE 13: note = alpha-methyl-leucine; SITE 17: note = Lysine is chemically modified through conjugation of the epsilon-amino group of the Lysine side chain with (2-[2-(2-Amino-ethoxy)-ethoxy]-acetyl)-(gamma-Glu)) [Example 211]	234
YXQGTFTSDFSKXLDKKAQXAFIEYLAAGGPSSGEPPPSGE (synthetic construct; SITE 2: note = 2-Aminoisobutyric Acid; SITE 13: note = alpha-methyl-leucine; SITE 17: note = Lysine is chemically modified through conjugation of the epsilon-amino group of the Lysine side chain with (epsilon-K)2-(gamma-Glu)-CO-(CH2)18-CO2H; SITE 20: note = 2-Aminoisobutyric Aci) [Example 405]	285

Next item in the queue.
Given item HXQGTXTSDYXIXLDXKAQXAFIEYLLEGGPSSGEPPPE (synthetic construct; SITE 2: note = 2-Aminoisobutyric Acid; SITE 6: note = alpha-methyl-2-fluoro-L-phenylalanine; SITE 11: note = alpha-methyl-L-serine; SITE 13: note = alpha-methyl-leucine; SITE 16: note = L-ornithine; SITE 17: note = Lysine is chemically modified through conjugation of the epsilon) [Example 381] , the value recorded as its cAMP Rel EC50, nM (1% HSA) is 24.5
